# MEASUREMENT TARGET: Runt-related transcription factor 1 (Homo sapiens) + Core-binding factor subunit beta (Homo sapiens) (UniProt Q01196+Q13951)
# Sequence (Q01196 whole entry, looked up): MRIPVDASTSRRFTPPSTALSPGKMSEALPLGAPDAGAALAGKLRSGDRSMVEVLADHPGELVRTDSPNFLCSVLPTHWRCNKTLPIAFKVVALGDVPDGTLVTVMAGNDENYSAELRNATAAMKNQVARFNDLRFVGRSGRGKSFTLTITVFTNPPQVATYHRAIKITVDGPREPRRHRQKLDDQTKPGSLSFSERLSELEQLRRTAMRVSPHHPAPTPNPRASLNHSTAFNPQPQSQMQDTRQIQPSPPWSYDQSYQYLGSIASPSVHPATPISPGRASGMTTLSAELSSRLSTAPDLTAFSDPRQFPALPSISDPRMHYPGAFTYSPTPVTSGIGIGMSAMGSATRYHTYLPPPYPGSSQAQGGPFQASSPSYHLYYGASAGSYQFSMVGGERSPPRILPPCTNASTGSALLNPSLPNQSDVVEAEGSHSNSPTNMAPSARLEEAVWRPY
# Sequence (Q13951 whole entry, looked up): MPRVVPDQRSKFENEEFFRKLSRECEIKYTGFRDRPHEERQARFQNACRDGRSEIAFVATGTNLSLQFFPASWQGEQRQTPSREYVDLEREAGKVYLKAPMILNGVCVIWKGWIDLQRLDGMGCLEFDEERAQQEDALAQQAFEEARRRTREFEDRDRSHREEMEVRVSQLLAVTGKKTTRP
# EXPERIMENTAL PROTOCOL: inhibitors of RUNX1 Runt–CBFb binding, primary screen, biochemical, FRET, Cerulean-Runt, Venus-CBFb, uHTS (AID 1496);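 note: 0% = DMSO wells and 100% = excess unlabeled CBFb competitor control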
# CONDITION PARAMETERS: Cerulean-Runt/Venus-CBFb FRET ratio 530/480, 1 h; at 20 µM; hits give high values
About 990 (0.45%) of roughly 220,000 compounds were called active. Shown is part of a subset that was picked to be rich in actives.
ATTRIBUTE MEASURED: inhibition (%)
Number in %, nothing else.

Here's what some known entries look like.
Cc1ccc(C(=O)OC(C)CN2CCOCC2)cc1 (stereo not given)    1.3
CCn1c(NC(=O)c2ccccc2)c(-c2cccs2)c(=O)c2ccccc21    -4.7
O=C(Cn1c(-c2ccccn2)nc2ccccc21)NCCN1CCOCC1    0.6
O=C1c2ccccc2C(Nc2ccc3c(c2)OCCO3)N1Cc1ccco1 (stereo not given)    70
Cc1ccnc(N2C(=O)c3ccccc3C2Nc2ccc3c(c2)OCCO3)c1 (stereo not given)    1.5
CC(C)c1c(O)nc(SCCOc2ccc(Cl)cc2)[nH]c1=O    0.6

For the compound shown here, CCc1cccc2c(C=C(C#N)C#N)cn(CC(=O)N3CCCCC3)c12 , give the reported inhibition. 91.4
